assay: Effect of different intervals between administration and a meal on pharmacokinetic parameters (three-period crossover, single oral dose); type: in vivo, human; settings: male, human, plasma, po, 7.5 mg, single oral 7.5 mg; Group C, high-fat meal 2 h after administration; N = 14; read-out: t1/2 Geomean (% CVb) (converted)
observation_type: half-life
Form entry: enter the amount, then its unit.

Exercise: Give the value of half-life reported for the following: CC1=NN(c2ccc3c(c2)CCCC3)C(=O)/C1=N\Nc1cccc(-c2ccc(C(=O)O)o2)c1O [compound represented by Formula I]
Solution: 15.1 h

====

experiment: Effect of different intervals between administration and a meal on pharmacokinetic parameters (three-period crossover, single oral dose); assay type: in vivo, human; settings: male, human, plasma, po, 7.5 mg, single oral 7.5 mg; Group A, without a breakfast after administration; N = 15; read-out: AUC0-t Geomean (% CVb)
observation_type: AUC(0-t) (ng·h/mL)
Answers are plain numbers, in ng·h/mL.

Exercise: Give the value of AUC(0-t) reported for the following: CC1=NN(c2ccc3c(c2)CCCC3)C(=O)/C1=N\Nc1cccc(-c2ccc(C(=O)O)o2)c1O [compound represented by Formula I]
Solution: 857

Reference source: patent US20220071961A1
